# Tested on: large crabgrass (Digitaria sanguinalis, DIGSA)
# experimental.details: Pre-emerge test, greenhouse herbicide activity screening
# Type: in vivo
# experimental.setup: 250 g ai/ha; phytotoxicity rating 0-100, 14 days after application
Kindly supply the reported Pre-emerge Herbicidal Activity DIGSA values for the records listed here.

Problem: # assay system large crabgrass (Digitaria sanguinalis, DIGSA): give Pre-emerge Herbicidal Activity DIGSA of COc1c(Cl)cc(F)c(-n2c(=O)cc(C(F)(F)F)n(C)c2=O)c1NC(=O)OCc1c(Cl)cccc1Cl [4-24]
Solution: 70

Problem: # assay system large crabgrass (Digitaria sanguinalis, DIGSA): give Pre-emerge Herbicidal Activity DIGSA of CCCCCC(=O)Nc1c(OC)c(Cl)cc(F)c1-n1c(=O)cc(C(F)(F)F)n(C)c1=O [2-198]
Solution: 100

Problem: # assay system large crabgrass (Digitaria sanguinalis, DIGSA): give Pre-emerge Herbicidal Activity DIGSA of Cn1c(C(F)(F)F)cc(=O)n(-c2c(F)cc(Cl)c(Oc3ncccc3[N+](=O)[O-])c2NC(=O)c2ccc3ccccc3c2)c1=O [2-199]
Solution: 100
